assay: in vivo; details: CD1 nude, mouse, 0.5 nmol/mouse, total radioactivity, Kidneys uptake
tissue uptake at 24 h values for the compounds below.
Report the value in %ID/g with no unit label.

// known answers, use as guide
COMPOUND: Cc1ccc(CCCC(=O)NCCOCCOCCOCCOCCOCCC(=O)NCCCC[C@H](NC(=O)CN2CCN(CC(=O)O)CCN(CC(=O)O)CCN(CC(=O)O)CC2)C(=O)N[C@@H](CC(=O)O)C(=O)N[C@@H](CC2CCCCC2)C(=O)N[C@@H](Cc2ccccc2)C(=O)N[C@H](CO)C(=O)N[C@H](CCCNC(=N)N)C(=O)N[C@@H](Cc2ccc(O)cc2)C(=O)N[C@@H](CC(C)C)C(=O)N[C@@H](Cc2c[nH]c3ccccc23)C(=O)N[C@@H](CO)C(N)=O)cc1 [[^177Lu]Lu-uPAR-18, metal not drawn]
UNIT_TEXT: %ID/g
tissue uptake at 24 h: 2.1
--
COMPOUND: Cc1ccc(CCCC(=O)NCCCCCCCC(=O)NCCCC[C@H](NC(=O)CN2CCN(CC(=O)O)CCN(CC(=O)O)CCN(CC(=O)O)CC2)C(=O)N[C@@H](CC(=O)O)C(=O)N[C@@H](CC2CCCCC2)C(=O)N[C@@H](Cc2ccccc2)C(=O)N[C@H](CO)C(=O)N[C@H](CCCNC(=N)N)C(=O)N[C@@H](Cc2ccc(O)cc2)C(=O)N[C@@H](CC(C)C)C(=O)N[C@@H](Cc2c[nH]c3ccccc23)C(=O)N[C@@H](CO)C(N)=O)cc1 [[^177Lu]Lu-uPAR-12, metal not drawn]
UNIT_TEXT: %ID/g
tissue uptake at 24 h: 4.3

In the following, a different compound is considered.
[in] Value lookup for tissue uptake at 24 h; key = Cc1ccc(CCCC(=O)NCCOCCOCCOCCC(=O)NCCCC[C@H](NC(=O)CN2CCN(CC(=O)O)CCN(CC(=O)O)CCN(CC(=O)O)CC2)C(=O)N[C@@H](CC(=O)O)C(=O)N[C@@H](CC2CCCCC2)C(=O)N[C@@H](Cc2ccccc2)C(=O)N[C@H](CO)C(=O)N[C@H](CCCNC(=N)N)C(=O)N[C@@H](Cc2ccc(O)cc2)C(=O)N[C@@H](CC(C)C)C(=O)N[C@@H](Cc2c[nH]c3ccccc23)C(=O)N[C@@H](CO)C(N)=O)cc1 [[^177Lu]Lu-uPAR-15, metal not drawn]
[out] 2
